- subject_of_test: platelets (Homo sapiens, UniProt P05106+P08514)
- Sequence (P08514 32-1039): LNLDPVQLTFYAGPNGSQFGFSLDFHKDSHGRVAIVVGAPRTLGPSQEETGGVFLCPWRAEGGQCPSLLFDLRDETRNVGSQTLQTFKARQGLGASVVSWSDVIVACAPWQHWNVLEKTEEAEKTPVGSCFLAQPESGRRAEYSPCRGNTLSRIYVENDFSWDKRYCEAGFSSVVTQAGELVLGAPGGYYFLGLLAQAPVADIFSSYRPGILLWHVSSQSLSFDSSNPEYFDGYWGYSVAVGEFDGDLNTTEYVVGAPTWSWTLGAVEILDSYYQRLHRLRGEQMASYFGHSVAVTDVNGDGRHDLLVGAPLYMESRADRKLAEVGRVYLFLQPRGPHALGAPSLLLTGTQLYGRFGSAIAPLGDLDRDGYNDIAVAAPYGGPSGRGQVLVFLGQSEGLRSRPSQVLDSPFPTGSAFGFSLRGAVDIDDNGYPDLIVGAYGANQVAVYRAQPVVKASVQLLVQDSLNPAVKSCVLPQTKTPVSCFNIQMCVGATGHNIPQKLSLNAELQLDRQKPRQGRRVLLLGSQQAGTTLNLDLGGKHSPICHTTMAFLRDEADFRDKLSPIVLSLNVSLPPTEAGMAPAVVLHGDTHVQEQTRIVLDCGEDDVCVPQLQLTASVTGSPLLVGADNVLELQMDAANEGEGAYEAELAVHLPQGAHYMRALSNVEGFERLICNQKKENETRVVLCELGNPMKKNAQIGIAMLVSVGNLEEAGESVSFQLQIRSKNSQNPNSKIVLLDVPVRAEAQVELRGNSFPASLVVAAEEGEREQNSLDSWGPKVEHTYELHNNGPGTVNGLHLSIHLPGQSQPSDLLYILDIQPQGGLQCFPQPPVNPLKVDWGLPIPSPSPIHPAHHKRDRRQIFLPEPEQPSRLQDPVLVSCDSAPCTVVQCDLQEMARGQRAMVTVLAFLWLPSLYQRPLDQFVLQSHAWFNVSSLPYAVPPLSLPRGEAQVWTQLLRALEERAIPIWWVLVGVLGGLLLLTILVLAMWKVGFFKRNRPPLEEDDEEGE
- Sequence (P05106 27-788): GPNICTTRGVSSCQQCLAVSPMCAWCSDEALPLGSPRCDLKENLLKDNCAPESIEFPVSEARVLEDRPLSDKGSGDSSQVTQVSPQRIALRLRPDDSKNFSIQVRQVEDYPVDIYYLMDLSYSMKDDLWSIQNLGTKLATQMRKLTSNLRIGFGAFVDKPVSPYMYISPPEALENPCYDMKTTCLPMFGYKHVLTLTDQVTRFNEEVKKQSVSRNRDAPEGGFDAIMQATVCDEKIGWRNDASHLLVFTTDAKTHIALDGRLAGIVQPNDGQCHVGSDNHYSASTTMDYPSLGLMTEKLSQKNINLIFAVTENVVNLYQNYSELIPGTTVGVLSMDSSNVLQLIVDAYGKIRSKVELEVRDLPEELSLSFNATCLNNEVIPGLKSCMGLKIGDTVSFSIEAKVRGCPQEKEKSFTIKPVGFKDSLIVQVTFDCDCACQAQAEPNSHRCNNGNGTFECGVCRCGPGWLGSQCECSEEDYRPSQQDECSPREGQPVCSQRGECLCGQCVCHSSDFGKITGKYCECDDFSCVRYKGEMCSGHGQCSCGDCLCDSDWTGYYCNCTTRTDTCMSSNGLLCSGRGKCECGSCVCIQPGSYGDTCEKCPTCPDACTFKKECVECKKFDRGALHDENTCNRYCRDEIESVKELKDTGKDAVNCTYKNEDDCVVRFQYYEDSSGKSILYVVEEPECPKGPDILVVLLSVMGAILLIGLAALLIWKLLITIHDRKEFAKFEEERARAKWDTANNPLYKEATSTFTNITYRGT
- assay_overview: Human platelet aggregation in PRP (modified assay, Table II)
- Format: cell-based
- measurement_parameters: citrate, collagen, U46619 or ADP
measurement_kind: IC50 (µM)
Just the number in µM, nothing appended.

In: What value of IC50 on platelets (Homo sapiens, UniProt P05106+P08514) does R(Pen)GHRGDWRCR [4Q] have?
Out: 3.3

----------
Listed next: entries and their corresponding pIC50.
- subject_of_test: platelets (Homo sapiens, UniProt P05106+P08514)
- assay_overview: Thrombin-stimulated platelet aggregation (gel-filtered platelets)
- Format: cell-based
- measurement_parameters: thrombin 2 U/ml
pIC50 field: float, defined as -log10 of concentration (mol/L).

Consider the reported pIC50 for these substances:
R2(Pen)GRGDTPCA    5.57
G(Pen)LRGDSRCA    4.31
R(Pen)GRGDWPCR [4R]    6.28

In: Return reported pIC50; argument: `G(Pen)GHRGDTRCA`
Out: 4.77

In: Return reported pIC50; argument: `R(Pen)GRGDTPCR`
Out: 5.70

In: Return reported pIC50; argument: `G(Pen)LRGDSPCA`
Out: 3.51
